system-name: human RET on cells (MCF7/SRE-Luc; HEK293/hGFRα3/hRET/SRE-Luc; HEK293/hGFRα1/hRET/SRE-Luc) (human), P07949
test-name: cell-based or functional assay
value-type: 293/hGFRα3/hRET/SRE-Luc IC50 (nM)
Return type: number; implicit unit nM.

>  <binder>
H2M7086N (antibody, mouse IgG2, V domains shown) VH: QVQLVESGGGVVQPGRSLRLSCVVSGFTFSNYGMHWVRQGPGRGLEWLALIWYDGSDKYYAESVRGRFTISRDNSKNTVYLQMNSLRAEDTAMYYCTRDRIFDYWGQGTLVTVSS VL: AIQMTQSPSSLSASVGDRVTITCRASQDIRNDLGWYQHNPGKAPNLLIYAASTLQIGVPSRFRGSGSGTDFTLTISSLQPEDFATYYCLQDFDYPLSFGGGTKVEIR

>  <result-units>
nM

>  <numeric-readout>
4

$$$$
>  <binder>
H4H8067P (antibody, human IgG4, V domains shown) VH: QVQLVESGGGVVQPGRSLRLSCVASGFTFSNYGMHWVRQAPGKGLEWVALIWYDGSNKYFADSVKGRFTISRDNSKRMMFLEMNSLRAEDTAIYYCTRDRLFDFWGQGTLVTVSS VL: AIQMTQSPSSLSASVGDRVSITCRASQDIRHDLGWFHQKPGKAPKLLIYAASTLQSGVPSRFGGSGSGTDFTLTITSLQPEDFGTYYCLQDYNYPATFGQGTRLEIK

>  <result-units>
nM

>  <numeric-readout>
4.8

$$$$

Now look at this one.
IN: Which value of 293/hGFRα3/hRET/SRE-Luc IC50 has been reported for H4H8085P (antibody, human IgG4, V domains shown) VH: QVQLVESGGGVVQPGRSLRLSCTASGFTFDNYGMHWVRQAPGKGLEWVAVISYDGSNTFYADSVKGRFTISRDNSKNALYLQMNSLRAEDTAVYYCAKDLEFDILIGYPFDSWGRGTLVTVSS VL: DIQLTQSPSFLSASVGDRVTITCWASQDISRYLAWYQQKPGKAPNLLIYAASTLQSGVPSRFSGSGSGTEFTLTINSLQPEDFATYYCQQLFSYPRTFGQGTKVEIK in the records?
OUT: 127
